Values compiled from PubChem BioAssay (NCI).

Tested on: TK-10 renal
Experiment: NCI tumour cell line growth inhibition, 48 h; in the data active = GI50 below about 0.43 µM; inactive = the rest
One label from this list, please: TRUE = active, FALSE = inactive

Some entries whose results are on file:
Hi team, can someone confirm the assay call for CCN1C(=O)CCCc2c1ccc(Nc1ncc(Cl)c(NC3[C@@H](C(N)=O)[C@@H]4C=C[C@H]3C4)n1)c2OC (stereo partly drawn) ? FALSE

Follow-up item: Cc1ccc(/C=C2\CN(C(=O)C(Cl)Cl)C/C(=C\c3ccc(C)cc3)C2=O)cc1 FALSE

Next compound up: CN(Cc1cccc(F)c1)c1ccc(CO)c(Cl)c1 TRUE

Proceed to C=C1C(=O)O[C@H]2[C@H]1CC/C(COC(=O)CCSCCC(=O)OC/C1=C/CC[C@@]3(C)O[C@H]3[C@H]3OC(=O)C(=C)[C@@H]3CC1)=C\CC[C@@]1(C)O[C@@H]21 FALSE

Now the compound CC(C)N1CCN(Cc2ccc3c(NNC(=O)c4ccccc4)nc4cc(F)ccc4n23)CC1 TRUE

Now the same for COC1=C(C)C(=O)c2c(c(CCCl)c3n2CCC3O)C1=O (stereo not drawn) TRUE

For COc1ccc2c(c1)CC[C@@H]1[C@@H]2CC[C@]2(C)[C@@H](NC(=O)/C=C/c3ccc(O)c(O)c3)CC[C@@H]12 then? FALSE

Turning now to a further record.
Recorded test call requested for FC(F)(F)c1ccc(-c2cnc(-n3cc(COCCN4CCCCC4)nn3)nc2NC2CCCCCC2)cc1 FALSE

====

Test system: HOP-62 NSCLC
Experiment: NCI tumour cell line growth inhibition, 48 h; in the data active means GI50 below about 0.43 µM; inactive means the rest
Can you answer with just one of these options? T for active, F for inactive

Fill in: this test's call for Nc1cc(O)ccc1N=Nc1ccc(-c2nc3ccccc3[nH]2)cc1 is ___ F

Param item: CCN1C(=O)CCCc2c1ccc(Nc1ncc(Cl)c(NC3[C@@H](C(N)=O)[C@@H]4C=C[C@H]3C4)n1)c2OC (stereo partly drawn) F

What about Brc1ccc2[nH]cc(-c3nc(-c4c[nH]c5ncccc45)cs3)c2c1 ? F

What do we get for Cc1cc2cc3ccc(N(C)C)cc3nc2cc1N ? F

Record: CCOc1cc(Br)c(C(C)NC(=O)c2cccc(OC)c2)cc1OCC (stereo not drawn) F

Further cases:
Hi, sorry to bother you, what did the test record for COc1ccc(S(=O)(=O)NC2=NCCN2C(=S)SN2CCn3c2nsc3=S)cc1 ? F

Also check CC(=O)N1N=C(c2ccc(Nc3ccnc4cc(Cl)ccc34)cc2)CC1c1ccc(Cl)cc1 (stereo not drawn) F

Then what about the compound CCCCCCNC(=O)Oc1ccc(/C(=C(/C)Cc2ccc(OC)cc2)c2ccc(OCCCN(C)C)cc2)cc1 ? F

Entry O=C(CN1CCN(c2cc3c(cc2F)c(=O)c(C(=O)O)cn3C2CC2)CC1)Nc1nc(-c2ccc(Cl)cc2)cs1 please F

How about COc1cccc(-c2ccc3c(c2)C2CCN(Cc4ccccc4)C3C2)c1 (stereo not drawn) ? F

Same read-out for CCN(Cc1ccc(F)cc1)c1ccc(CO)c(C)c1 ? F

What about CC(C)N1CCN(Cc2ccc3c(NNC(=O)c4ccccc4)nc4cc(F)ccc4n23)CC1 ? T

Entry Cc1cc(S(=O)(=O)/N=C/N(C)C)c(SC(=O)c2ccc(Cl)cc2)cc1Cl please F

Here is the next compound: Cn1nc(-c2ccc(Cl)cc2)nc2c(=O)n(C)c(=O)nc1-2 F

For COc1cccc(-c2nn(-c3ccccc3)cc2-c2ccnc(NCCNC(=O)Nc3cccc(C(F)(F)F)c3)c2)c1 then? F

Request: COC1=C(C)C(=O)c2c(c(CCCl)c3n2CCC3O)C1=O (stereo not drawn) T

Check Cc1cc(Nc2nc(-c3cccnc3)nc3ccccc23)n[nH]1 too. F

Let us now turn to Cc1ccc(-c2c3c(nn2-c2ccc(S(N)(=O)=O)cc2)-c2ccccc2C3)cc1 F

====

Tested on: U251 CNS
Test: NCI tumour cell line growth inhibition, 48 h
attribute_measured: TGI

Previously resolved entries follow.
# TGI lookup, item CC(=O)OCC1OC(OCCCCCCO)C(OC(C)=O)C(OC(C)=O)C1OC(C)=O (stereo unspecified) > 100 µM

Same thing, different compound: O=[N+]([O-])c1ccccc1S(=O)(=O)c1ccccc1 > 100 µM

Follow-up entry: COC(=O)CCC1CCc2c(OC)ccc(OC)c2C1=O (stereo unspecified) > 100 µM

New cases:
So what does the record say about TGI for C=C1C(=O)O[C@H]2[C@H]3O[C@@H](C[C@@H]12)[C@@]1(C)CC[C@H](O1)[C@H](C)CCC[C@H]3C ? 2.82 µM

Cool, now COc1cc(C2c3cc4c(cc3OC(Nc3ccccc3)C2C)OCO4)cc(OC)c1O (stereo unspecified) 14.2 µM

Now give it for C/C(=C\c1ccccc1)C(=O)NCc1ccc(C(=O)NCCc2ccccc2)cc1 too. > 100 µM

====

System: SF-268 CNS
Assay: NCI tumour cell line growth inhibition, 48 h
attribute_measured: TGI

Please give the measured TGI for this compound: COC(=O)CCC1CCc2c(OC)ccc(OC)c2C1=O (stereo not given) > 100 µM

Moving on to COc1ccc2c(c1)C/C(=C\c1cccc3ccccc13)C2=O > 100 µM

New cases:
Looking for the measured TGI of O=C1c2ccccc2C(=O)c2sc(Nc3ccccc3C(F)(F)F)nc21 , can you help? 30.1 µM

Please give the result for Cc1cc(Nc2nc(-c3cccnc3)nc3ccccc23)n[nH]1 too. > 67.2 µM

Likewise for NC(=O)c1ccccc1NC(=O)C(=O)Cc1nc2ccccc2[nH]c1=O ? > 100 µM

Param item: O=C(CN1CCN(c2cc3c(cc2F)c(=O)c(C(=O)O)cn3C2CC2)CC1)Nc1nc(-c2ccc(Cl)cc2)cs1 > 100 µM

How about Oc1ccc(O)c(-c2cc(-c3ccc(Cl)cc3)nn2-c2ccccc2)c1 ? 12.2 µM

What would you report for CCOC(=O)c1c(C)n(Cc2ccccc2)c2c1cc(O)c1[nH]c(Cc3ccccc3)nc12 ? > 100 µM

What do you have for CNC(=S)N/N=C(\C(=N/NC(=S)NC)c1ccccn1)c1ccccn1 ? > 63.6 µM

Please give the result for CC(=O)OCC1OC(OCCCCCCO)C(OC(C)=O)C(OC(C)=O)C1OC(C)=O (stereo not given) too. > 100 µM

====

System: MCF7 breast
Assay: NCI tumour cell line growth inhibition, 48 h
# GI50 listing for each entry below

The following compounds have reported results that may help.
Provide value of GI50 for this record tested with MCF7 breast: COc1cccc2c1-c1c(c3ccc([N+](=O)[O-])cc3c(=O)n1CCCN)C2=O 48.6 nM

# repeat for CC(C)N1CCN(Cc2ccc3c(NNC(=O)c4ccccc4)nc4cc(F)ccc4n23)CC1 341 nM

Try this compound next: CCN(Cc1ccc(F)cc1)c1ccc(CO)c(C)c1 15100 nM

Continuing:
Lab request: please report GI50 under test system MCF7 breast for COc1cccc(-c2ccc3c(c2)C2CCN(Cc4ccccc4)C3C2)c1 (stereo unspecified) 4340 nM

// same read-out, input: Cc1cc(Nc2nc(-c3cccnc3)nc3ccccc23)n[nH]1 1280 nM

Also COc1ccccc1C1=C(Nc2ccccc2)C(=O)NC1=O ? > 25000 nM

====

TGI reference
System: UACC-257 melanoma
Test: NCI tumour cell line growth inhibition, 48 h
Return type: number; implicit unit µM.

What value of TGI has been recorded for this entry: C=C1C(=O)O[C@H]2[C@H]1CC/C(COC(=O)CCSCCC(=O)OC/C1=C/CC[C@@]3(C)O[C@H]3[C@H]3OC(=O)C(=C)[C@@H]3CC1)=C\CC[C@@]1(C)O[C@@H]21 3.6

Field: next compound
Which TGI value belongs to C=CCc1cc(-c2cc(CC=C)c(O)c(CN(CC)CC)c2)cc(CN(CC)CC)c1O ? 68.5

====

This listing pairs compounds with measured TGI.
Tested on: OVCAR-3 ovarian
Test: NCI tumour cell line growth inhibition, 48 h

// lookup TGI for O=C1C=C2SC3C[C@@]24CC1[N+]1=c2c4c(c(O)c4c2=C(C=N4)CC1)N3 2.51 µM

Others:
Which TGI reading was recorded for the compound NC(=O)c1ccccc1NC(=O)C(=O)Cc1nc2ccccc2[nH]c1=O ? > 100 µM

Same question for COC(=O)C1=C(c2ccc(OC)c(OC)c2)OC(c2cc(OC)c(OC)c(OC)c2)C1 (configuration not stated) please. > 100 µM

Same lookup for COC(=O)C(=CNC(N)=O)C(=O)OC , please. > 100 µM

====

Tested on: SK-MEL-5 melanoma
Assay: NCI tumour cell line growth inhibition, 48 h
attribute_measured: TGI (µM)
Express your answer in µM, writing the number without its unit.

Before answering, review these 2 worked examples.
// TGI lookup, key: Oc1ccc(O)c(-c2cc(-c3ccc(Cl)cc3)nn2-c2ccccc2)c1 28.8

Repeat with COc1cc([C@@H]2c3cc4c(cc3[C@@H](Nc3ccccc3C(=O)c3ccccc3)[C@H]3COC(=O)[C@H]23)OCO4)cc(OC)c1OC 2.93

---
Need TGI of CC(=O)N1N=C(c2ccc(Nc3ccnc4cc(Cl)ccc34)cc2)CC1c1ccc(Cl)cc1 (stereo not given) , thanks. 16

Moving on to the next compound: CC(C)N1CCN(Cc2ccc3c(NNC(=O)c4ccccc4)nc4cc(F)ccc4n23)CC1 3.11
